assay: Acute toxicity in mouse
measurement-context: in vivo, po; female mouse, orally, seven days
Experimental: (6) Acute toxicity in mouse and rat Each ten male and female ICR-JCL strain mice and Sprague-Dawley-JCL strain rats were used for each dose. Test compound was given to animals in a form of suspension in 0.5% methyl cellose orally. After administration, the incidence of the death was recorded for successive seven days. LD50 values were calculated by the method of Lichfield-Wilcoxon method.
measured-metric: LD50 at 168 h (mg/kg)
Output spec: scalar in mg/kg, unitless text.

Consider the compound `O=C(Cn1c(=O)sc2ccc(Cl)cc21)N1CCNCC1` and give its measured LD50 at 168 h. 219

====

assay: Acute toxicity in rat
measurement-context: in vivo, po; female rat, orally, seven days
measured-metric: LD50 at 168 h (mg/kg)
Output spec: scalar in mg/kg, unitless text.

Consider the compound `O=C(Cn1c(=O)sc2ccc(Cl)cc21)N1CCNCC1` and give its measured LD50 at 168 h. 734
